- assay_remarks: Solubility in water and biorelevant buffers at 25° C.
- Type: physicochemical
- test_conditions: thermodynamic from solid; PBS-V1 + FaSSIF-V2, pH 6.5; 25° C.; 24 h; read-out: Solubility (mg/mL) S
quantity: solubility at 24 h

# compound, quantity, obs_value
measured = [
    ("COc1cc(C)c2[nH]ccc2c1CN1CCC2(C[C@H]1c1ccc(C(=O)O)cc1)CC(F)(F)C2.Cc1ccc(S(=O)(=O)O)cc1 [Form B]", "solubility at 24 h", "> 2 mg/mL"),
    ("COc1cc(C)c2[nH]ccc2c1CN1CCC2(C[C@H]1c1ccc(C(=O)O)cc1)CC(F)(F)C2 [Form A]", "solubility at 24 h", "0.072 mg/mL"),
]

====

- assay_remarks: Pharmacokinetic study after oral dosing, rat
- Type: in vivo, SD Rat
- test_conditions: male, SD (Sprague-Dawley), rat, in vivo, po, 300 mg/kg, oral; suspension in 0.5% methocel + 0.1% tween 80 in water; SD Rat male; 300 mg/kg; particle size D50 = 5.1 μm; Fed; 5 mL/kg; read-out: C24 h

# compound, concentration at 24 h / µM
rows = [
    ("COc1cc(C)c2[nH]ccc2c1CN1CCC2(C[C@H]1c1ccc(C(=O)O)cc1)CC(F)(F)C2 [Form A]", 3.3),
]

====

- assay_remarks: Pharmacokinetic study after oral dosing, rat
- Assay type: in vivo, SD Rat
- test_conditions: male, SD (Sprague-Dawley), rat, in vivo, po, 300 mg/kg; solution in 20% kleptose in water; SD Rat male; Fed; 10 mL/kg

# test_smiles, Cmax
measured = [
    ("COc1cc(C)c2[nH]ccc2c1CN1CCC2(C[C@H]1c1ccc(C(=O)O)cc1)CC(F)(F)C2", "94 µM"),
]

====

- assay_remarks: Pharmacokinetic study after oral dosing, rat
- Format: in vivo, SD Rat
- test_conditions: male, SD (Sprague-Dawley), rat, in vivo, po, 300 mg/kg, oral; suspension in 0.5% methocel + 0.1% tween 80 in water; SD Rat male; 300 mg/kg; particle size D50 = 5.1 μm; Fed; 5 mL/kg

# compound, units, Cmax
rows = [
    ("COc1cc(C)c2[nH]ccc2c1CN1CCC2(C[C@H]1c1ccc(C(=O)O)cc1)CC(F)(F)C2 [Form A]", "µM", 157),
]

====

- assay_remarks: Pharmacokinetic study after oral dosing, rat
- Type: in vivo, SD Rat
- test_conditions: male, SD (Sprague-Dawley), rat, in vivo, po, 300 mg/kg, oral; solution in 20% kleptose in water; SD Rat male; 300 mg/kg; Fed; 10 mL/kg; read-out: AUC0-24 h

# test_smiles, AUC(0-t)
records = [
    ("COc1cc(C)c2[nH]ccc2c1CN1CCC2(C[C@H]1c1ccc(C(=O)O)cc1)CC(F)(F)C2", "1110 µM·h"),
]

====

- assay_remarks: Pharmacokinetic study after oral dosing, dog
- test_conditions: in vivo, solution in 20% kleptose in water, Dog beagle male, 100 mg/kg, Fasted, 5 mL/kg, read-out: AUC0-24 h

# test_smiles, AUC(0-t) / µM·h
measured = [
    ("COc1cc(C)c2[nH]ccc2c1CN1CCC2(C[C@H]1c1ccc(C(=O)O)cc1)CC(F)(F)C2", 1320),
]
